molecular target: HIV-1 protease (Human immunodeficiency virus type 1 group M subtype B); construct: 2.6 nM of HIV-1 protease; assay: Assay for inhibitory effect on HIV protease (residual enzyme activity, HPLC of substrate cleavage); assay type: biochemical; conditions: HIV-1 protease 2.6 nM, pH 5.5; rate constant of covalent bond formation; read-out: kina (converted)
readout.type: kinact (s⁻¹)

- compound: "CCC(C)[C@H](NC=O)C(=O)NC[C@@H]1O[C@@H]1[C@H](Cc1ccccc1)NC(=O)[C@H](CC(N)=O)NC(=O)c1ccc2ccccc2n1 (stereo partly drawn)"
  reading: 0.00667
- compound: "CC[C@H](C)[C@H](NC(=O)C[C@@H]1O[C@@H]1[C@H](Cc1ccccc1)NC(=O)[C@H](CC(N)=O)NC(=O)c1ccc2ccccc2n1)C(=O)OC"
  reading: 0.00367
- compound: "COC(=O)C(CCC(N)=O)NC(=O)C[C@@H]1O[C@@H]1[C@H](Cc1ccccc1)NC(=O)[C@H](CC(N)=O)NC(=O)OCc1ccccc1 (stereo partly drawn)"
  reading: 0.00717
- compound: "CC[C@H](C)[C@H](NC(=O)C[C@@H]1O[C@@H]1[C@H](CC1CCCCC1)NC(=O)[C@H](CC(N)=O)NC(=O)c1ccc2ccccc2n1)C(=O)OC"
  reading: 0.00333
- compound: "CC(C)CC[C@@H]1O[C@@H]1[C@H](Cc1ccccc1)NC(=O)[C@H](CC(N)=O)NC(=O)c1ccc2ccccc2n1"
  reading: 0.002
- compound: "CC[C@H](C)[C@H](NC(=O)C[C@@H]1O[C@@H]1[C@H](Cc1ccccc1)NC(=O)[C@H](CC(N)=O)NC(=O)COc1cccc2ccccc12)C(=O)OC"
  reading: 0.002

====

Molecular target: HIV-1 protease (Human immunodeficiency virus type 1 group M subtype B, UniProt P04585)
Construct: 2.6 nM of HIV-1 protease
Experiment: Assay for inhibitory effect on HIV protease (residual enzyme activity, HPLC of substrate cleavage)
Format: biochemical
Conditions: HIV-1 protease 2.6 nM, pH 5.5; inhibition constant
Protocol: The inhibitory effect on HIV protease of the compounds of the present invention was determined by the following method. […] The inhibition constant was calculated according to the following equation: [formula] wherein: kobs is a rate constant indicating the rate of reduction in enzyme activity according to the elapsed time under the presence of a given concentration of inhibitor, […]
pKi: −log10 of the molar value.
Bucketed by reported pKi, buckets being bottom bin = under 6, middle bin = from 6 up to 7, top bin = 7 and over

- molecule: "CC(C)[C@@H](NC(=O)C[C@@H]1O[C@@H]1[C@H](Cc1ccccc1)NC(=O)[C@H](CC(N)=O)NC(=O)c1ccc2ccccc2n1)c1ccccc1 [compound 43]"
  answer.label: "top bin"
- molecule: "CC(C)CC[C@@H]1O[C@@H]1[C@H](Cc1ccccc1)NC(=O)[C@H](CC(N)=O)NC(=O)c1ccc2ccccc2n1 [compound 70]"
  answer.label: "middle bin"
- molecule: "CC(C)C[C@H](NC(=O)[C@H](CC(N)=O)NC(=O)OCc1ccccc1)[C@H]1O[C@H]1CCc1ccccc1 [compound 56]"
  answer.label: "bottom bin"
- molecule: "NC(=O)C[C@H](NC(=O)c1ccc2ccccc2[n+]1[O-])C(=O)N[C@@H](Cc1ccccc1)[C@H]1O[C@H]1CCc1ccccc1 [compound 64]"
  answer.label: "bottom bin"
- molecule: "CC(C)(C)OC(=O)N[C@@H](Cc1ccccc1)[C@H]1O[C@H]1CCc1ccccc1 [compound 51]"
  answer.label: "bottom bin"
- molecule: "NC(=O)C[C@H](NC(=O)c1ccc2ccccc2n1)C(=O)NC[C@@H]1O[C@@H]1[C@H](Cc1ccccc1)NC(=O)[C@H](CC(N)=O)NC(=O)c1ccc2ccccc2n1 [compound 84]"
  answer.label: "middle bin"
- molecule: "CC(C)[C@H](Cc1ccccc1)NC(=O)C[C@@H]1O[C@@H]1[C@H](Cc1ccccc1)NC(=O)[C@H](CC(N)=O)NC(=O)c1ccc2ccccc2n1 [compound 42]"
  answer.label: "top bin"
- molecule: "CC[C@H](C)[C@H](NC(=O)C[C@@H]1O[C@@H]1[C@H](Cc1ccccc1)NC(=O)[C@@H](NC(=O)OCc1ccccn1)C(C)C)C(=O)OC [compound 38]"
  answer.label: "bottom bin"

====

Target: HIV-1 protease (Human immunodeficiency virus type 1 group M subtype B, UniProt P04585)
Construct: 2.6 nM of HIV-1 protease
Test: Assay for inhibitory effect on HIV protease (residual enzyme activity, HPLC of substrate cleavage)
Type: biochemical
Conditions: HIV-1 protease 2.6 nM, pH 5.5; rate constant of covalent bond formation; read-out: kina (converted)
Experimental: The inhibitory effect on HIV protease of the compounds of the present invention was determined by the following method. […] The inhibition constant was calculated according to the following equation: [formula] wherein: kobs is a rate constant indicating the rate of reduction in enzyme activity according to the elapsed time under the presence of a given concentration of inhibitor, […]

- compound: "COC(=O)C(Cc1ccccc1)NC(=O)C(CCC(N)=O)NC(=O)C[C@@H]1O[C@@H]1[C@H](Cc1ccccc1)NC(=O)[C@H](CC(N)=O)NC(=O)c1ccc2ccccc2n1 (some centres unmarked) [compound 14]"
  system: "HIV-1 protease (Human immunodeficiency virus type 1 group M subtype B, UniProt P04585)"
  reading.unit: "s⁻¹"
  kinact: 0.00417
- compound: "COC(=O)C(CCC(N)=O)NC(=O)C[C@@H]1O[C@@H]1[C@H](Cc1ccccc1)NC(=O)[C@H](CC(N)=O)NC(=O)c1ccc2ccccc2n1 (some centres unmarked) [compound 12]"
  system: "HIV-1 protease (Human immunodeficiency virus type 1 group M subtype B, UniProt P04585)"
  reading.unit: "s⁻¹"
  kinact: 0.005
- compound: "CC(C)[C@@H](CCCc1ccccc1)NC(=O)C[C@@H]1O[C@@H]1[C@H](Cc1ccccc1)NC(=O)[C@H](CC(N)=O)NC(=O)c1ccc2ccccc2n1 [compound 50]"
  system: "HIV-1 protease (Human immunodeficiency virus type 1 group M subtype B, UniProt P04585)"
  reading.unit: "s⁻¹"
  kinact: 0.025
- compound: "COC(=O)C(NC(=O)C(CCC(N)=O)NC(=O)C[C@@H]1O[C@@H]1[C@H](Cc1ccccc1)NC(=O)[C@H](CC(N)=O)NC(=O)COc1cccc2ccccc12)C(C)C (some centres unmarked) [compound 16]"
  system: "HIV-1 protease (Human immunodeficiency virus type 1 group M subtype B, UniProt P04585)"
  reading.unit: "s⁻¹"
  kinact: 0.0025
- compound: "CONC(=O)[C@@H](NC(=O)C[C@@H]1O[C@@H]1[C@H](Cc1ccccc1)NC(=O)[C@H](CC(N)=O)NC(=O)c1ccc2ccccc2n1)C(C)C [compound 34]"
  system: "HIV-1 protease (Human immunodeficiency virus type 1 group M subtype B, UniProt P04585)"
  reading.unit: "s⁻¹"
  kinact: 0.00267

====

pKi values for the compounds below.
molecular target: HIV-1 protease (Human immunodeficiency virus type 1 group M subtype B); construct: 2.6 nM of HIV-1 protease; test: Assay for inhibitory effect on HIV protease (residual enzyme activity, HPLC of substrate cleavage); assay type: biochemical; conditions: HIV-1 protease 2.6 nM, pH 5.5; inhibition constant
pKi: −log10 of the molar value.
readout.type: pKi

- compound: "CC[C@H](C)[C@H](NC(=O)OCc1ccccc1)C(=O)N[C@@H](Cc1ccccc1)[C@H]1O[C@H]1CCc1ccccc1"
  qualifier: "="
  reading: 6.00
- compound: "CC(C)[C@H](NC(=O)C[C@@H]1O[C@@H]1[C@H](Cc1ccccc1)NC(=O)[C@H](CC(N)=O)NC(=O)c1ccc2ccccc2n1)c1ccccc1"
  qualifier: "="
  reading: 7.92
- compound: "CC(C)[C@H](CCCc1ccccc1)NC(=O)C[C@@H]1O[C@@H]1[C@H](Cc1ccccc1)NC(=O)[C@H](CC(N)=O)NC(=O)c1ccc2ccccc2n1"
  qualifier: "="
  reading: 8.92
- compound: "CC(C)C(Cc1ccccc1)NC(=O)C[C@@H]1O[C@@H]1[C@H](Cc1ccccc1)NC(=O)[C@H](CC(N)=O)NC(=O)c1ccc2ccccc2n1 (stereo partly drawn)"
  qualifier: "="
  reading: 6.22
- compound: "NC(=O)C[C@H](NC(=O)COc1cccc2ccccc12)C(=O)N[C@@H](Cc1ccccc1)[C@H]1O[C@H]1CCc1ccccc1"
  qualifier: "="
  reading: 6.60
- compound: "CC[C@H](C)[C@H](NC(=O)C[C@@H]1O[C@@H]1[C@H](Cc1ccccc1)NC(=O)[C@H](CC(N)=O)NC(=O)c1ccc2ccccc2n1)C(=O)NOC"
  qualifier: "="
  reading: 7.82
- compound: "CC(C)[C@H](CCc1ccccc1)NC(=O)C[C@@H]1O[C@@H]1[C@H](Cc1ccccc1)NC(=O)[C@H](CC(N)=O)NC(=O)c1ccc2ccccc2n1"
  qualifier: "="
  reading: 7.96
- compound: "CC(C)(C)OC(=O)NC[C@@H]1O[C@@H]1[C@H](Cc1ccccc1)NC(=O)[C@H](CC(N)=O)NC(=O)c1ccc2ccccc2n1"
  qualifier: "="
  reading: 6.40
- compound: "CC[C@H](C)[C@H](NC(=O)C[C@@H]1O[C@@H]1[C@H](Cc1ccccc1)NC(=O)[C@H](CC(N)=O)NC(=O)c1ccc2ccccc2n1)C(N)=O"
  qualifier: "="
  reading: 8.52
- compound: "CC[C@H](C)[C@H](NC(=O)C[C@@H]1O[C@@H]1[C@H](Cc1ccccc1)NC(=O)[C@H](CC(N)=O)NC(=O)c1ccc2ccccc2n1)C(=O)NC"
  qualifier: "="
  reading: 7.70
- compound: "CC[C@H](C)[C@H](NC(=O)C[C@@H]1O[C@@H]1[C@H](Cc1ccccc1)NC(=O)[C@H](CC(N)=O)NC(=O)c1ccc2ccccc2n1)C(=O)N1CCOCC1"
  qualifier: "<"
  reading: 5.00
- compound: "CC[C@H](C)[C@H](NC(=O)C[C@@H]1O[C@@H]1[C@H](Cc1ccccc1)NC(=O)[C@H](CC(N)=O)NC(=O)c1ccc2ccccc2n1)C(=O)NO"
  qualifier: "="
  reading: 7.48
